Target: LCK (Homo sapiens)
Construct: purchased Perkin Elmer (ProfilerPro assay kit 1)
Sequence (P06239 whole entry): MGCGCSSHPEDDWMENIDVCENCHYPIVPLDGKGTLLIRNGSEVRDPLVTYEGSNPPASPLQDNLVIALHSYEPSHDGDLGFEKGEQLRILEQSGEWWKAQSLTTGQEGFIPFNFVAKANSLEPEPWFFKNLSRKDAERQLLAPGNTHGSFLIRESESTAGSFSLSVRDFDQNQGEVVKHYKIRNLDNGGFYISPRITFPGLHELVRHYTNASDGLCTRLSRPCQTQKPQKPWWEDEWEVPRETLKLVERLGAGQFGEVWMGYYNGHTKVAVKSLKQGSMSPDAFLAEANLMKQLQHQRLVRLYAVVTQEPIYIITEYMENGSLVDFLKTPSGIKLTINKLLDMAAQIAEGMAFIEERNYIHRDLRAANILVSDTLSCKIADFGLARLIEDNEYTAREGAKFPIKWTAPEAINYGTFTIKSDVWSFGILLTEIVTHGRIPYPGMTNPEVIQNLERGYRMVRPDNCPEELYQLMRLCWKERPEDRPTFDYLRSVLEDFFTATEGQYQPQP
Assay: 26-kinase panel mobility shift assay, single concentration
Type: biochemical
Settings: read-out: % Inhibition LCK
Each entry gets not met if its inhibition at 100 µM stays under 40%, and met if its inhibition at 100 µM is 40% or above.

Recorded results for 5 molecules are shown here.
>>> print(df.to_string())
                        input_smiles      cat
0           Cc1nc(O)c(N)cc1-c1ccncc1  not met
1                     Nc1ccc[nH]c1=O  not met
2  Nc1cc(-c2ccnc(NC3CC3)n2)c[nH]c1=O  not met
3    CNc1nccc(-c2c[nH]c(=O)c(N)c2)n1      met
4             COc1ncc(-c2ccncc2)cc1N  not met

Query molecule follows.
Form field: inhibition at 100 µM at least 40%? Entry: "Cn1cc(-c2c[nH]c(=O)c(N)c2)cn1"
not met

----------
pKi: −log10 of the molar value.
Recorded pKi values (Aurora B (Homo sapiens, UniProt Q96GD4)) are given below.

// below: answered molecules
>>> print(df.to_string())
                                   molecule                                   target   value
0         Cc1[nH]c(=O)c(C(N)=O)cc1-c1ccncc1  Aurora B (Homo sapiens, UniProt Q96GD4)  < 4.00
1  Cc1[nH]c(=O)c(C#N)cc1-c1ccncc1 [Compound 13, Milrinone, reference compound]  Aurora B (Homo sapiens, UniProt Q96GD4)  < 4.00

// moving on: another record for pKi
Look up pKi for this molecule: "O=c1[nH]cc(-c2ccncc2)cc1NS(=O)(=O)c1ccccc1"
< 4.00

----------
Ki: recorded values
Molecular target: Aurora A (Homo sapiens, UniProt O14965)
Sequence (O14965 1-403): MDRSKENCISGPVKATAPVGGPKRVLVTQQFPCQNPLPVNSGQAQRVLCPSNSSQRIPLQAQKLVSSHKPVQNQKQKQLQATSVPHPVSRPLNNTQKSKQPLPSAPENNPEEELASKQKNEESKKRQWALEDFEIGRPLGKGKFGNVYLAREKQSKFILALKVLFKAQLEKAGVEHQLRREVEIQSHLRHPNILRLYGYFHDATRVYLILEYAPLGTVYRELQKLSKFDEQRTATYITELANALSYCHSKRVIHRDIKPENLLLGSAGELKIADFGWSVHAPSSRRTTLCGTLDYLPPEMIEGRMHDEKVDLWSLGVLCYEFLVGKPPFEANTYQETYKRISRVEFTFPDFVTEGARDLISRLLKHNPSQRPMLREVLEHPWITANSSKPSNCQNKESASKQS

>>> df
                                   molecule  reported_property     value
0    Cc1nc(O)c(N)cc1-c1ccncc1 [Compound 15]                 Ki  > 100 µM
1  O=c1[nH]cc(-c2ccncc2)cc1NS(=O)(=O)c1ccccc1 [Compound 21]                 Ki  > 100 µM

Need Ki of COc1cc(OC)cc(C(=O)Nc2cc(-c3ccncc3)c[nH]c2=O)c1 [Compound 18] , thanks.
> 100 µM

----------
Target: MPS1 (Homo sapiens, UniProt P33981)
Sequence (P33981 1-857): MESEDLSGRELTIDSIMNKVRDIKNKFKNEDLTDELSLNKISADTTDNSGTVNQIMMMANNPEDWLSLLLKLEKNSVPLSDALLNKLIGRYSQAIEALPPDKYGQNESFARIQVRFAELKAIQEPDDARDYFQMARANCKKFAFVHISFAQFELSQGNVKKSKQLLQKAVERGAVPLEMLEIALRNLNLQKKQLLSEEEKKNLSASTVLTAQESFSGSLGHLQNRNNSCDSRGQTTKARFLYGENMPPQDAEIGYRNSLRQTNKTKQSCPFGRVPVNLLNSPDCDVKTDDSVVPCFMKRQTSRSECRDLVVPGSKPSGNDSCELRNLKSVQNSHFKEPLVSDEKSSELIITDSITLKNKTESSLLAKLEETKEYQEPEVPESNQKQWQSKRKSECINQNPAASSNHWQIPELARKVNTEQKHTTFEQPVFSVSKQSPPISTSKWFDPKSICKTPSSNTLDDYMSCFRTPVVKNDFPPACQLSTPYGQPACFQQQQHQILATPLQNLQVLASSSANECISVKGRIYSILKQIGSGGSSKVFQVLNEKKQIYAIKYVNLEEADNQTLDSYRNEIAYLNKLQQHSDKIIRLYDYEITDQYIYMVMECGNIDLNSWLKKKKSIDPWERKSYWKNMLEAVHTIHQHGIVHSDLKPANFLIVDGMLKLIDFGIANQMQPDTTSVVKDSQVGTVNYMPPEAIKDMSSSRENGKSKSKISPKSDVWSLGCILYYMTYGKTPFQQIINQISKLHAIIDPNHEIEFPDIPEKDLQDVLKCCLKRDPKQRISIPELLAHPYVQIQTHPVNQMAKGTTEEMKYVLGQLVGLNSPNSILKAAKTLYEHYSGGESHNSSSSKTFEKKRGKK
Collected Ki values appear next to each entry.

Look over these answered cases.
>>> print(df.to_string())
                                   compound     value
0  O=c1[nH]cc(-c2ccncc2)cc1NS(=O)(=O)c1ccccc1  > 100 µM
1  Cc1[nH]c(=O)c(C#N)cc1-c1ccncc1 [Compound 13, Milrinone, reference compound]  > 100 µM

Continue with the next compound.
Requested read-out Ki, target or system MPS1 (Homo sapiens, UniProt P33981), entry "Nc1ccc[nH]c1=O"
> 1000 µM

----------
Here's what we have: Ki numbers for Aurora B (Homo sapiens).
Note: unit µM is implicit; provide only the numeric part.

In [3]: df
Out[3]:
                    input_smiles  reported_property  value
0  Cn1cc(-c2c[nH]c(=O)c(N)c2)cn1                 Ki    3.2

What value of measured Ki is listed for "Nc1cc(-c2ccccc2)cnc1O" ?
70.3

Next record, please: "O=C(Nc1cc(-c2ccncc2)c[nH]c1=O)c1ccc(N2CCCCC2)cc1"
7.4

Also "O=C(Nc1cc(-c2ccncc2)c[nH]c1=O)c1ccccc1" ?
41
